# Tested Target: T1, human GPA33 expressed on HEK293STF cells (EGFP-human GPA33 expression vector, ORIGENE RG210225) (human, UniProt Q99795 22-319)
# T1 sequence (looked up): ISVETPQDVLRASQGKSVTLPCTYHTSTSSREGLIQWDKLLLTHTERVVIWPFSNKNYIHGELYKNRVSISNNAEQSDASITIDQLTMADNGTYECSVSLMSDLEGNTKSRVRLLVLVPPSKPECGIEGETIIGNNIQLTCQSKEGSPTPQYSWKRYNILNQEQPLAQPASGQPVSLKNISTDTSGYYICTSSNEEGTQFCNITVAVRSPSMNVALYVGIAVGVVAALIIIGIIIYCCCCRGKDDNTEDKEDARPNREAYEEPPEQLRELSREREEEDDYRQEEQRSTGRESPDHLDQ
# Assay Explanation: cell-based or functional assay
Quantity Name: EC50(MOG)/ EC50(GPA33)
Reply briefly: the number, and no unit.

Inquiry: Suppose we examine the binder G17-R4CRD-His (other) QMQLVQSGGGLVKPGGSLRLSCAASGFTFSSYNMNWVRQAPGKGLEWVSSISSSGDFMYYADSVKGRFTISRDNAKNSLYLQMSSLRAEDTAVYYCAREGPGTPFDYWGQGTLVTVSSGGGGSGGGGSGSTGSAIQLTQSPSSLSASVGDRVTITCRASQSISSFLNWYQHKPGKAPKLLIYVASSLQSGVPSRFSGSGSGTDFTLTISSLQPEDFATYYCQQSHNTPYTFGQGTKLEIKGGSGGSGGNCTGCIICSEENGCSTCQQRLFLFIRREGIRQYGKCLHDCPPGYFGIRGQEVNRCKKCGATCESCFSQDFCIRCKRQFYLYKGKCLPTCPPGTLAHQNTRECQGHHHHHHGA ; what EC50(MOG)/ EC50(GPA33) value has been reported?
Reply text: 348

Data credit: patent EP4636087A1
